System: female CBA/J mice
Test: In vivo toxicity, bolus ip
Settings: 5 mg/kg bolus ip, day 5
Non-standard residues stand in square brackets, D forms with d. Residues, ends and D or L forms follow the SMILES beside them. Nva = CCC[C@H](N)C(=O)O
Observation Type: Kidney weight relative to total weight (%)
One number for each entry, in %.

// CCC[C@H](NC(=O)[C@@H]1CCCN1C(=O)[C@@H](NC(=O)[C@H](N)CC(N)=O)[C@@H](C)CC)C(=O)N[C@@H](CC(C)C)C(=O)N[C@@H](Cc1ccc(O)cc1)C(=O)N[C@H](CO)C(=O)N[C@@H](Cc1ccccc1)C(=O)N[C@@H](C)C(=O)N[C@H](CO)C(N)=O [ADP 355-NH2] (H-[dN]IP[Nva]LY[dS]FA[dS]-NH2) : Kidney weight relative to total weight (%) value = 1.6

###

Test system: female CBA/J mice
Experiment: In vivo toxicity, bolus ip
Conditions: 50 mg/kg bolus ip, day 5
Non-standard residues stand in square brackets, D forms with d. Residues, ends and D or L forms follow the SMILES beside them. Nva = CCC[C@H](N)C(=O)O
Observation Type: Liver weight relative to total weight (%)
Provide the measurement as a number trailed by its unit.

The compound CCC[C@H](NC(=O)[C@@H]1CCCN1C(=O)[C@@H](NC(=O)[C@H](N)CC(N)=O)[C@@H](C)CC)C(=O)N[C@@H](CC(C)C)C(=O)N[C@@H](Cc1ccc(O)cc1)C(=O)N[C@H](CO)C(=O)N[C@@H](Cc1ccccc1)C(=O)N[C@@H](C)C(=O)N[C@H](CO)C(N)=O [ADP 355-NH2] (H-[dN]IP[Nva]LY[dS]FA[dS]-NH2) on female CBA/J mice: Liver weight relative to total weight (%) was 6.2%

###

System: female CBA/J mice
Experiment: In vivo toxicity, bolus ip
Settings: 25 mg/kg bolus ip, day 5
Non-standard residues stand in square brackets, D forms with d. Residues, ends and D or L forms follow the SMILES beside them. Nva = CCC[C@H](N)C(=O)O
Observation Type: Kidney weight relative to total weight (%)
Numbers only, in %.

Notebook: CCC[C@H](NC(=O)[C@@H]1CCCN1C(=O)[C@@H](NC(=O)[C@H](N)CC(N)=O)[C@@H](C)CC)C(=O)N[C@@H](CC(C)C)C(=O)N[C@@H](Cc1ccc(O)cc1)C(=O)N[C@H](CO)C(=O)N[C@@H](Cc1ccccc1)C(=O)N[C@@H](C)C(=O)N[C@H](CO)C(N)=O [ADP 355-NH2] (H-[dN]IP[Nva]LY[dS]FA[dS]-NH2) , Kidney weight relative to total weight (%) read as 1.7
